These data points were gathered from the supplement of paper PMC8728848.

# Test System: Man(a1-2)Man(a1-2)Man(a1-6)[Man(a1-3)]Man
# Assay Details: glycan array binding signal (z-score within array); higher = stronger binding
# Applied Conditions: glycan notation: IUPAC condensed, linker removed
This is one part of a sample in which the strongest signals are shown more often than they occur.
Parameter: glycan array binding signal (z-score)
I'd appreciate a reply containing only the number, no unit.

// query glycan array binding signal (z-score) value for entry DGL (Dioclea grandiflora), P08902 (protein) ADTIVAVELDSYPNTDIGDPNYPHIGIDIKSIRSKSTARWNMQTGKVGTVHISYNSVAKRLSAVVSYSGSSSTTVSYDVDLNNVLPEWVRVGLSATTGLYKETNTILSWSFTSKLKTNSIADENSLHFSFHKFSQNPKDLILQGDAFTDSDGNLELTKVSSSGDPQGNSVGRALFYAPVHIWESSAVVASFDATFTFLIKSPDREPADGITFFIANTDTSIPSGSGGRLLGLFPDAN 5.91

Request: DCAL1 (Homo sapiens), Q8IZS7 (protein) MVSNFFHVIQVFEKSATLISKTEHIGFVIYSWRKSTTHLGSRRKFAISIYLSEVSLQKYDCPFSGTSFVVFSLFLICAMAGDVVYADIKTVRTSPLELAFPLQRSVSFNFSTVHKSCPAKDWKVHKGKCYWIAETKKSWNKSQNDCAINNSYLMVIQDITAMVRFNI -0.251
